settings: in dichloromethane, 293.15 K
measurement-label: solubility (mole fraction)

molecule CCC(C)n1ncn(-c2ccc(N3CCN(c4ccc(OC[C@H]5CO[C@](Cn6cncn6)(c6ccc(Cl)cc6Cl)O5)cc4)CC3)cc2)c1=O (mixture of isomers) , solubility (mole fraction) observed: 0.0306

* * *

settings: in ethanol, 308.15 K
measurement-label: solubility (mole fraction)
Numbers only.

Lab note: CCC(C)n1ncn(-c2ccc(N3CCN(c4ccc(OC[C@H]5CO[C@](Cn6cncn6)(c6ccc(Cl)cc6Cl)O5)cc4)CC3)cc2)c1=O (mixture of isomers) gave solubility (mole fraction) of 3.18e-05

* * *

conditions: in ethanol, 293.15 K
measurement-label: solubility (mole fraction)

Given item CCC(C)n1ncn(-c2ccc(N3CCN(c4ccc(OC[C@H]5CO[C@](Cn6cncn6)(c6ccc(Cl)cc6Cl)O5)cc4)CC3)cc2)c1=O (mixture of isomers) , the value recorded as its solubility (mole fraction) is 1.43e-05

* * *

settings: in n-propanol, 303.15 K
measurement-label: solubility (mole fraction)
Give bare numbers.

Quick note, solubility (mole fraction) for CCC(C)n1ncn(-c2ccc(N3CCN(c4ccc(OC[C@H]5CO[C@](Cn6cncn6)(c6ccc(Cl)cc6Cl)O5)cc4)CC3)cc2)c1=O (mixture of isomers) landed at 2.68e-05

* * *

conditions: in methanol, 293.15 K
measurement-label: solubility (mole fraction)
Numbers only.

For reference, reported solubility (mole fraction) for CCC(C)n1ncn(-c2ccc(N3CCN(c4ccc(OC[C@H]5CO[C@](Cn6cncn6)(c6ccc(Cl)cc6Cl)O5)cc4)CC3)cc2)c1=O (mixture of isomers) stands at 2.97e-05

* * *

details: in chloroform, 303.15 K
measurement-label: solubility (mole fraction)
Give bare numbers.

response.value for CCC(C)n1ncn(-c2ccc(N3CCN(c4ccc(OC[C@H]5CO[C@](Cn6cncn6)(c6ccc(Cl)cc6Cl)O5)cc4)CC3)cc2)c1=O (mixture of isomers) (field: solubility (mole fraction)) = 0.0525

* * *

details: in n-propanol, 308.15 K
measurement-label: solubility (mole fraction)

Briefly, solubility (mole fraction) measured for CCC(C)n1ncn(-c2ccc(N3CCN(c4ccc(OC[C@H]5CO[C@](Cn6cncn6)(c6ccc(Cl)cc6Cl)O5)cc4)CC3)cc2)c1=O (mixture of isomers) : 3.36e-05

* * *

details: in n-butanol, 308.15 K
measurement-label: solubility (mole fraction)
Answers are plain numbers.

Entry under test: CCC(C)n1ncn(-c2ccc(N3CCN(c4ccc(OC[C@H]5CO[C@](Cn6cncn6)(c6ccc(Cl)cc6Cl)O5)cc4)CC3)cc2)c1=O (mixture of isomers) . Its solubility (mole fraction) was 3.52e-05

* * *

details: in ethanol, 288.15 K
measurement-label: solubility (mole fraction)
One number for each entry.

response.value for CCC(C)n1ncn(-c2ccc(N3CCN(c4ccc(OC[C@H]5CO[C@](Cn6cncn6)(c6ccc(Cl)cc6Cl)O5)cc4)CC3)cc2)c1=O (mixture of isomers) (field: solubility (mole fraction)) = 1.07e-05

* * *

details: in methanol, 288.15 K
measurement-label: solubility (mole fraction)

Record CCC(C)n1ncn(-c2ccc(N3CCN(c4ccc(OC[C@H]5CO[C@](Cn6cncn6)(c6ccc(Cl)cc6Cl)O5)cc4)CC3)cc2)c1=O (mixture of isomers) , field solubility (mole fraction): 2.35e-05

* * *

settings: in chloroform, 293.15 K
measurement-label: solubility (mole fraction)
Answers are plain numbers.

// field: solubility (mole fraction); key: CCC(C)n1ncn(-c2ccc(N3CCN(c4ccc(OC[C@H]5CO[C@](Cn6cncn6)(c6ccc(Cl)cc6Cl)O5)cc4)CC3)cc2)c1=O (mixture of isomers) ; value = 0.048

Data origin, for the record: BigSolDB 2.1
